All values here come from patent US20230416239A1.

The following molecules are shown together with reported BINDING IL6 % Neutra at 100 μM values.
Biological target: IL-6 (Homo sapiens, UniProt P05231)
Sequence (P05231 30-212, species assumed): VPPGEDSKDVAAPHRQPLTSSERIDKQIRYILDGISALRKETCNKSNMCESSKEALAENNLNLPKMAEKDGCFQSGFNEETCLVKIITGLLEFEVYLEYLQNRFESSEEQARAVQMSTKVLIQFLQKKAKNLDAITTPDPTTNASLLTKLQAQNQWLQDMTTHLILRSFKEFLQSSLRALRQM
Assay: Immunoassay binding test, IL-6 (gp130 receptor, IL-6Ra present)
Settings: IL-6Ra 200 ng/ml
quantity: BINDING IL6 % Neutra at 100 μM (%)

>>> print(df.to_string())
                                   molecule                        tested_system  value_units  meas_value
0  O=S(=O)(c1ccccc1)n1cc(CN(CCCCCNC2CCCCC2)Cc2ccc(F)nc2)c2ccccc21  IL-6 (Homo sapiens, UniProt P05231)            %           0
1  FC(F)(F)c1cccc(-n2cc(CN(CCCCCNC3CCCCC3)Cc3ccncc3)c3ccccc32)c1  IL-6 (Homo sapiens, UniProt P05231)            %        20.4
2  CN(CCN(Cc1cccnc1)Cc1cn(S(=O)(=O)c2ccccc2)c2ccccc12)C1CCCCC1  IL-6 (Homo sapiens, UniProt P05231)            %         −12
3  CCCN(CCOCCN(Cc1cccnc1F)Cc1cn(S(=O)(=O)c2ccccc2)c2ccccc12)C1CCCCC1 [Compound 97]  IL-6 (Homo sapiens, UniProt P05231)            %           0
4  CN1CCN(S(=O)(=O)n2cc(CN(CCCCN(C)C3CCCCC3)Cc3cccnc3F)c3ccccc32)CC1  IL-6 (Homo sapiens, UniProt P05231)            %           2
5  O=S(=O)(c1ccccc1)n1cc(CN(Cc2ccncc2)CC2CCCN(C3CCCCC3)C2)c2ccccc21 (stereo not drawn)  IL-6 (Homo sapiens, UniProt P05231)            %         2.1

* * *

The following molecules are shown together with reported Displacement EC50 TNFa in presence of compound: Difference values.
Biological target: TNFa/TNFRI interaction (Homo sapiens)
Sequence (P01375 77-233 limits assumed): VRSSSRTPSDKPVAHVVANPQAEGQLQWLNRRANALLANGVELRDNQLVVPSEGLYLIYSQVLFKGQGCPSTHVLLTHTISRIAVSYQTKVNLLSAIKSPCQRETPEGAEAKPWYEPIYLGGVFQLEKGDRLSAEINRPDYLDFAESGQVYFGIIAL
Experiment: TNFa/TNFRI interaction displacement test;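 also: SPD304 reference at 20 µM final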
Format: binding
Conditions: Compound EC50 minus SPD304 EC50
quantity: Displacement EC50 TNFa in presence of compound: Difference (ng/mL)

                                   molecule                          tested_system  value_units  meas_value
0  O=S(=O)(c1ccccc1)n1cc(CN(CCCCCNC2CCCCC2)Cc2cccnc2)c2ccccc21 [Compound 34]  TNFa/TNFRI interaction (Homo sapiens)        ng/mL         9.9
1  O=S(=O)(c1ccccc1)n1cc(CN(CCCCCNC2CCCCC2)Cc2ccncc2)c2ccccc21 [Compound 33]  TNFa/TNFRI interaction (Homo sapiens)        ng/mL        11.6
2  O=S(=O)(c1ccccc1)n1cc(CN(Cc2ccncc2)CC2CCCN(C3CCCCC3)C2)c2ccccc21 (stereo not shown) [Compound 5]  TNFa/TNFRI interaction (Homo sapiens)        ng/mL         8.3
3  O=S(=O)(c1ccccc1)n1cc(CN(Cc2cccc(F)n2)CC2CCCN(C3CCCCC3)C2)c2ccccc21 (stereo not shown) [Compound 41]  TNFa/TNFRI interaction (Homo sapiens)        ng/mL         4.7

* * *

Target: UniProt P05231
Test: Immunoassay binding test, IL-6 (gp130 receptor, IL-6Ra present)
Details: IL-6Ra 200 ng/ml
The following compounds are shown together with reported BINDING IL6 % Neutra at 100 μM values.
quantity: BINDING IL6 % Neutra at 100 μM (%)

In [3]: df
Out[3]:
                                   compound                        quantity  meas_value
0  O=S(=O)(c1ccccc1)n1cc(CN(CCCNC2CCCCC2)Cc2cccnc2)c2ccccc21  BINDING IL6 % Neutra at 100 μM         3.3
1  O=S(=O)(c1ccccc1)n1cc(CN(CCCCNC2CCCCC2)Cc2cn(S(=O)(=O)c3ccccc3)c3ccccc23)c2ccccc21  BINDING IL6 % Neutra at 100 μM           0
2  CN(CCCCCN(Cc1cccnc1F)Cc1cn(S(=O)(=O)c2ccccc2)c2ccccc12)C1CCCCC1  BINDING IL6 % Neutra at 100 μM           0
3  Fc1ncccc1CN(Cc1cn(-c2cccc(C(F)(F)F)c2)c2ccccc12)CC1CCCN(C2CCCCC2)C1 (stereo not shown)  BINDING IL6 % Neutra at 100 μM           0
4  CN(CCCCN(Cc1cccnc1F)Cc1cn(S(=O)(=O)c2ccccc2)c2ccccc12)C1CCCCC1  BINDING IL6 % Neutra at 100 μM           0
5  CN(CCCCN(Cc1ccncc1)Cc1cn(-c2cccc(C(F)(F)F)c2)c2ccccc12)C1CCCCC1  BINDING IL6 % Neutra at 100 μM         3.6
6  CN(CCCCCN(Cc1ccncc1)Cc1cn(-c2cccc(C(F)(F)F)c2)c2ccccc12)C1CCCCC1  BINDING IL6 % Neutra at 100 μM        23.7
